- SYSTEM_UNDER_TEST: T1, human CCR8 (human, UniProt P51685 1-355)
- T1 construct: the assay field says which; also called hCCR8; huCCR8
- TEST_SUMMARY: flow cytometry, CHO-huCCR8.Gna15 cells, relative to rb.Ab4
Below, each of the binders is paired with its reported Relative MFI value.
RECORDED_METRIC: Relative MFI (ratio)

[[record]]
binder = "hu.Ab4.H3L1 (antibody, human IgG1, kappa, V domains shown) VH: EQQLLESGGGLVQPGGSLRLSCAASGFSLSNYAMIWVRQAPGKGLEWVGTISLGGYTYYANWAKGRFTISKDSSKTTVYLQMNSLRAEDTAVYFCARARWSTDSAIYTYAFDPWGPGTLVTVSS VL: DYQMTQSPSSLSASVGDRVTITCQASQSISSYLSWYQQKPGKRPKLLIYKASTLASGVPSRFSGSGSGTDFTLTISSLQPEDFATYYCQQGYTSSNIDNIFGGGTKVEIKR"
value = 1.02

[[record]]
binder = "hu.Ab4.H5L1 (antibody, human IgG1, kappa, V domains shown) VH: EQQLLESGGGLVQPGGSLRLSCAVSGFSLSNYAMIWVRQAPGKGLEWVGTISLGGYTYYANWAKGRFTISRDSSKTTVYLQMNSLRAEDTAVYFCARARWSTDSAIYTYAFDPWGPGTLVTVSS VL: DYQMTQSPSSLSASVGDRVTITCQASQSISSYLSWYQQKPGKRPKLLIYKASTLASGVPSRFSGSGSGTDFTLTISSLQPEDFATYYCQQGYTSSNIDNIFGGGTKVEIKR"
value = 0.9

[[record]]
binder = "hu.Ab4.H6L1 (antibody, human IgG1, kappa, V domains shown) VH: EQQLLESGGGLVQPGGSLRLSCAVSGFSLSNYAMIWVRQAPGKGLEWVGTISLGGYTYYANWAKGRFTISKDNSKTTVYLQMNSLRAEDTAVYFCARARWSTDSAIYTYAFDPWGPGTLVTVSS VL: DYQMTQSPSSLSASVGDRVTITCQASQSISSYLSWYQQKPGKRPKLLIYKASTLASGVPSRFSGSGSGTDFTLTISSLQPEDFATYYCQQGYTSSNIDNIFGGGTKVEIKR"
value = 0.68

